Tested on: corn
protocol details: Post emergence test, phytotoxicity on the crop corn
Type: in vivo
run conditions: post emergence spray, 1 g/a, evaluated two weeks after treatment
recorded endpoint: Evaluation index Corn (phytotoxicity)

Below, 2 compounds whose answers are already recorded.
1. COC(=O)C(Cl)Cc1cc(-n2nc3ccc(Cl)cn3c2=O)c(F)cc1Cl (stereo not drawn) [Compound No. A-43]: 0 (no effect 0)
2. CCS(=O)(=O)Nc1cc(-n2nc3n(c2=O)CCS3)c(F)cc1C#N [Compound No. C-2]: 0 (no effect 0)

Please supply Evaluation index Corn (phytotoxicity) for each of the following items, keeping them in order.
1. C#CCOc1cc(-n2nc3n(c2=O)CCCN3)c(F)cc1Cl [Compound No. F-1]
2. C#CCOc1cc(-n2nc3ccc(Cl)cn3c2=O)c(F)cc1Cl [Compound No. A-25]
3. Cc1cc2c(-n3nc4ccc(Cl)cn4c3=O)c(F)cc(Cl)c2o1 [A-62]
4. CCS(=O)(=O)Nc1cc(-n2nc3ccc(Cl)cn3c2=O)c(F)cc1C#N [Compound No. A-3]
5. CCS(=O)(=O)Nc1cc(-n2nc3n(c2=O)CCCS3)c(F)cc1C#N [Compound No. E-1]

3 (big 25.1 to 50.0)
0 (no effect 0)
1 (small 0.1 to 12.5)
1 (small 0.1 to 12.5)
1 (small 0.1 to 12.5)

Please supply Evaluation index Corn (phytotoxicity) for each of the following items, keeping them in order.
1. CCS(=O)(=O)Nc1cc(-n2nc3n(c2=O)CCCN3C)c(F)cc1C#N [Compound No. F-2]
2. CCOC(=O)COC(=O)c1cc(-n2nc3ccc(Cl)cn3c2=O)c(F)cc1Cl [Compound No. A-34]

1: 1 (small 0.1 to 12.5); 2: 1 (small 0.1 to 12.5)

###

recorded endpoint: melting point

Below, 5 compounds whose answers are already recorded.
1) C#CCOc1cc(-n2nc3n(c2=O)CCCN3)c(F)cc1Cl: 172 to 174 °C
2) COc1cc(-n2nc3ccc(Cl)cn3c2=O)c(F)cc1Cl: 140 to 142 °C
3) C#CCN(c1cc(-n2nc3ccc(Cl)cn3c2=O)c(F)cc1C#N)S(=O)(=O)CC: 176 to 178 °C
4) C#CCOc1cc(-n2nc3ccc(Cl)cn3c2=O)c(F)cc1Cl: 145 to 148 °C
5) CNS(=O)(=O)c1cc(-n2nc3ccc(Cl)cn3c2=O)c(F)cc1C#N: 154 to 157 °C

Please supply melting point for each of the following items, keeping them in order.
1. C#CCOc1cc(-n2nc3ccc(Cl)cn3c2=O)c(F)cc1C#N
2. C#CCOc1cc(-n2nc3c(Cl)cc(Cl)cn3c2=O)c(F)cc1C#N
3. CCOC(=O)COC(=O)c1cc(-n2nc3ccc(Cl)cn3c2=O)c(F)cc1Cl
4. C=CCOc1cc(-n2nc3ccc(Cl)cn3c2=O)c(F)cc1C#N

1: 209 to 211 °C; 2: 145 to 147 °C; 3: 62 to 65 °C; 4: 183 to 185 °C

###

I'd be grateful if you could share measured Evaluation index Velvet leaf for these entries.
System: velvetleaf
protocol details: Herbicidal effects against weeds (post emergence), velvetleaf
Type: in vivo
run conditions: post emergence spray, 1 g/a, evaluated two weeks after treatment

Below, 4 compounds whose answers are already recorded.
1. CCOC(=O)COC(=O)c1cc(-n2nc3ccc(Cl)cn3c2=O)c(F)cc1Cl: 4 (maximum 87.6 to 99.9)
2. CCOC(=O)C(C)Oc1cc(-n2nc3ccc(Cl)cn3c2=O)c(F)cc1Cl (centres unmarked): 4 (maximum 87.6 to 99.9)
3. C#CCOc1cc(-n2nc3n(c2=O)CCCN3)c(F)cc1Cl: 4 (maximum 87.6 to 99.9)
4. CCS(=O)(=O)Nc1cc(-n2nc3ccc(Br)cn3c2=O)ccc1C#N: 5 (maximum *all dead) 100)

I am curious: what Evaluation index Velvet leaf value has been reported for `CCS(=O)(=O)Nc1cc(-n2nc3ccc(Cl)cn3c2=O)c(F)cc1C#N` ?
5 (maximum *all dead) 100)
